tested on: pigweed (Amaranthus retroflexus); assay: Test A postemergence; format: in vivo; conditions: Postemergence, 500 g ai/ha; 0 to 100 scale where 0 is no effect and 100 is complete control
Description: […]
QUANTITY: Plant response rating, Pigweed
Just the number.

# COMPOUND, TESTED SYSTEM, QUANTITY, OBS VALUE
measured = [
    ("CN1CC(c2ccc(Br)cc2)C(C(=O)Nc2ccccc2S(C)(=O)=O)C1=O (stereo not shown)", "pigweed (Amaranthus retroflexus)", "Plant response rating, Pigweed", 60),
    ("CCc1cccc(C2CN(C)C(=O)C2C(=O)Nc2ccccc2F)c1 (stereo not shown)", "pigweed (Amaranthus retroflexus)", "Plant response rating, Pigweed", 20),
    ("O=C1NCC(c2cc(C(F)(F)F)ccc2F)C1C(=O)Nc1cccc(F)c1F (stereo not shown)", "pigweed (Amaranthus retroflexus)", "Plant response rating, Pigweed", 40),
]

Ask: Please give the measured Plant response rating, Pigweed for this compound: Cc1ccc(C2CNC(=O)C2C(=O)Nc2ccccc2S(C)(=O)=O)c(F)c1 (racemic)
Result: 0

Ask: Name the reported Plant response rating, Pigweed value associated with the compound C=CCN1CC(c2cccc(C(F)(F)F)c2)C(C(=O)Nc2cccc(F)c2F)C1=O (stereo not shown)
Result: 70

Ask: Please give the measured Plant response rating, Pigweed for this compound: O=C1NCC(c2cc(F)c(F)cc2F)C1C(=O)Nc1ccc(F)c(F)c1F (stereo not shown)
Result: 30

Ask: Sample O=C1NCC(c2cccc(C(F)(F)F)c2)C1C(=O)Nc1ccccc1O (stereo not shown) — what was its Plant response rating, Pigweed?
Result: 0

Ask: Need Plant response rating, Pigweed of COCc1cccc(C2CNC(=O)C2C(=O)Nc2ccccc2Cl)c1 (stereo not shown) , thanks.
Result: 0

Ask: Find the recorded Plant response rating, Pigweed belonging to O=C1NCC(c2cc(C(F)(F)F)ccc2F)C1C(=O)Nc1ccc(F)cc1F (stereo not shown) and report it.
Result: 30

Ask: Look up Plant response rating, Pigweed for this compound: CN1CC(c2cccc(C(F)(F)F)c2)C(C(=O)Nc2cccc(Cl)c2F)C1=O (stereo not shown)
Result: 40

Ask: // query Plant response rating, Pigweed value for entry CN1CC(c2ccc(C(F)(F)F)cc2)C(C(=O)Nc2ccc(F)cc2F)C1=O (stereo not shown)
Result: 50

Ask: Bench note: what Plant response rating, Pigweed did O=C1NCC(c2cc(F)c(F)cc2F)C1C(=O)Nc1ccc(F)cc1F (racemic) show?
Result: 0

Ask: Report Plant response rating, Pigweed for O=C(Nc1ccccc1F)C1C(=O)N(C2C=CCCC2)CC1c1cccc(C(F)(F)F)c1 (stereo not shown) please.
Result: 0

###

system: giant foxtail (Setaria faberii); assay: Test A preemergence; type: in vivo; conditions: Setaria faberi, pre-emergence, 240 h, 500 g ai/ha, preemergence; 0 to 100 scale, 0 = no effect, 100 = complete control; read-out: Plant response rating, Foxtail, Giant
QUANTITY: pest or weed control at 500 g/ha (%)
Give just the number in %; leave the unit off.

Here is how some compounds turned out for pest or weed control at 500 g/ha.
# COMPOUND STRUCTURE STRING, pest or weed control at 500 g/ha [%]
rows = [
    ("Cc1ccc([C@H]2CNC(=O)[C@@H]2C(=O)Nc2cccc(F)c2F)c(F)c1", 90),
    ("CSc1ccccc1NC(=O)[C@H]1C(=O)N(C)C[C@@H]1c1ccc(C)c(C)c1", 90),
    ("CN1C[C@H](c2ccc(F)c(F)c2)[C@@H](C(=O)Nc2cccc(F)c2F)C1=O", 100),
    ("CN1C[C@H](c2ccc3c(c2)CCC3)[C@@H](C(=O)Nc2cccc(F)c2F)C1=O", 90),
    ("C=CCN1C[C@H](c2ccc(OC)c(F)c2)[C@@H](C(=O)Nc2ccccc2S(C)(=O)=O)C1=O", 0),
]

Ask: Query the reported pest or weed control at 500 g/ha for giant foxtail (Setaria faberii); item: Cc1ccc([C@H]2CNC(=O)[C@@H]2C(=O)Nc2cccc(F)c2F)s1
Result: 0
